# IC50 listing for each entry below
tested on: MDA-MB-231; assay: Cytotoxicity against human MDA-MB-231 cells assessed as growth inhibition after 72 hrs by MTT assay; type: functional, cell-based; conditions: MDA-MB-231, 72 h
Expressed in nM, but write only the number.

[
  {
    "substance.smiles": "COc1cc2cc(NC(=O)/C=C/c3ccc(F)cc3)c(=O)oc2cc1O",
    "IC50 [nM]": 2350
  }
]

Entry under test: `COc1cc2cc(NC(=O)/C=C/c3ccc(Cl)cc3)c(=O)oc2cc1O` . Its IC50 was 231

response.value for `COc1cc2cc(NC(=O)/C=C/c3ccccc3)c(=O)oc2cc1O` (field: IC50) = 369

Recorded result, `COc1ccc(/C=C/C(=O)Nc2cc3cc(OC)c(O)cc3oc2=O)cc1` , IC50: 578

Recorded IC50 (compound `COc1cccc2c1C(=O)c1c(O)c3c(c(O)c1C2=O)C[C@@](O)(C(=O)CO)C[C@@H]3O[C@H]1C[C@H](N)[C@H](O)[C@H](C)O1` ): 1550

====

tested on: MCF7; assay: Cytotoxicity against human MCF7 cells assessed as growth inhibition at 10^-5 M after 72 hrs by MTT assay relative to control; format: functional; settings: MCF7, 72 h, read-out: GI
reported.endpoint: inhibition of growth at 10 µM (%)
API: value field is a number in %; no unit string.

// known answers, use as guide
[
  {
    "compound": "COc1cc2ccc(=O)oc2cc1OC(=O)/C=C/c1cc(OC)c(OC)c(OC)c1",
    "inhibition of growth at 10 µM / %": 18
  },
  {
    "compound": "COc1cc2cc(NC(=O)/C=C/c3ccc(C#N)cc3)c(=O)oc2cc1O",
    "inhibition of growth at 10 µM / %": 27.3
  },
  {
    "compound": "COc1ccc(/C=C/C(=O)Oc2cc3oc(=O)ccc3cc2OC)cc1",
    "inhibition of growth at 10 µM / %": 13.7
  }
]

Record `COc1cc2ccc(=O)oc2cc1OC(=O)/C=C/c1ccc(F)cc1` , field inhibition of growth at 10 µM: 1.77

inhibition of growth at 10 µM measured on COc1cccc2c1C(=O)c1c(O)c3c(c(O)c1C2=O)C[C@@](O)(C(=O)CO)C[C@@H]3O[C@H]1C[C@H](N)[C@H](O)[C@H](C)O1 [DOXORUBICIN] = 84.9

For reference, reported inhibition of growth at 10 µM for `COc1cc2cc(NC(=O)/C=C/c3ccccc3)c(=O)oc2cc1O` stands at 6.06

The recorded inhibition of growth at 10 µM for `COc1cc2ccc(=O)oc2cc1OC(=O)/C=C/c1ccc(C#N)cc1` is 10.5

The value of inhibition of growth at 10 µM measured for the compound `COc1cc2cc(NC(=O)/C=C/c3ccc(F)cc3)c(=O)oc2cc1O` turned out to be 58.4

response.value for `COc1cc2cc(NC(=O)/C=C/c3cc(OC)c(OC)c(OC)c3)c(=O)oc2cc1O` (field: inhibition of growth at 10 µM) = 18.3

For this compound ( `COc1cc(/C=C/C(=O)Oc2cc3oc(=O)ccc3cc2OC)ccc1OCc1ccccc1` ), measured inhibition of growth at 10 µM is 9.91
